- assay.summary: biological half-life in rat hepatic S9 preparation
- Format: in vitro ADME
- study.conditions: liver s9; rat hepatic S9, approximately 2 mcg/mL, 37° C.; read-out: Half-life (not detected at initial sampling)
measure.name: half-life

Challenge: Could you tell me which half-life is on file for CCOC(=O)c1cccc(NC(=O)CCCCCCCCCCCOC)c1 ?
Response given: < 5 min

====

- assay.summary: biological half-life in rat hepatic S9 preparation
- Type: in vitro ADME
- study.conditions: liver s9; rat hepatic S9, approximately 2 mcg/mL, 37° C., 0 to 20 minutes; read-out: Half-life
Entries and their measured half-life follow.
Respond numerically; units are min and should not be typed.

Use the examples below as a reference point.
COCCCCCCCCCCCC(=O)Nc1cccc(C(=O)O)c1
8.46
CCCCCCCCCCOCCC(=O)N[C@H](Cc1ccccc1)C(=O)OCC
1.97
COCCCCCCCCCCCC(=O)NCc1ccccc1 [Example 14, 12-Methoxy-N-(phenylmethyl)dodecanamide]
2.41

Challenge: Which measured half-life value corresponds to CCOC(=O)[C@H](Cc1ccccc1)NC(=O)CCCCCCCCCCCOC ?
Response given: 1.07

Challenge: Can you share its half-life? I mean this compound: CCOC(=O)[C@@H](CCCCNC(=O)OCc1ccccc1Cl)NC(=O)CCCCCCCCCCCOC
Response given: 8.54
